- ASSAYED_SYSTEM: HTRA1, Q92743
- Sequence (Q92743 360-477): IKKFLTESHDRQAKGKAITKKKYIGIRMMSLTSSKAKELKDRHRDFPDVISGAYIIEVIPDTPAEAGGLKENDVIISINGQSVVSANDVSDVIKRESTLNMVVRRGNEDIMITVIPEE
- TEST_METHOD_NOTES: holdup assay
- Parameters: key: below the threshold = too weak to quantify, mostly under pKd 3.1 to 4
- PARTICULARS: plain residues with an end cap or a label only (N-terminal biotin on a linker: ado-ado)
Label rule, in plain words: pKd of 4 and up is Fulfilled, under 4 is Not fulfilled.

BINDER	CATEGORY
TSQESEDTYL [TBC1D10A, Q9BXI6]	Fulfilled
DDEDRLVIEI [ZNF831, Q5JPB2]	Fulfilled
KSGKQTMLVV [TRIM29, Q14134;Q14134-2]	Fulfilled
LKVPPEERLI [CRB2, Q5IJ48]	Fulfilled
YYKRPVQEWV [MMP24, Q9Y5R2]	Fulfilled
RHGSCVETSL [TMEM151B, Q8IW70]	Not fulfilled
QSPANIYYKV [EFNB1, P52799]	Fulfilled
AKPSRISTVV [IQSEC2, Q5JU85]	Fulfilled
FNSYSLTGYV [CLDN2, P57739]	Fulfilled
RRRESYSTTV [EVI5, O60447]	Fulfilled
HSGYRLNDYV [CLDN14, O95500]	Fulfilled
SAAKVLTSMC [GHRHR, Q02643]	Not fulfilled
YLEPVLSSEL [ATP2A2, P16615]	Not fulfilled
CLREWCDAFL [BANF1, O75531]	Fulfilled

The measurements presented in this section are drawn from paper PMC9482650.
